Task for the reader: assign each of the following binders its reported glycan array binding signal (z-score).
target: GlcA(b1-6)Gal; experiment: glycan array binding signal (z-score within array); higher = stronger binding; settings: glycan notation: IUPAC condensed, linker removed
Many of the other results were omitted from the sample, so the strongest signals are more common in it than they were.

SLLPI (Homo sapiens), Q8IXA5 (protein) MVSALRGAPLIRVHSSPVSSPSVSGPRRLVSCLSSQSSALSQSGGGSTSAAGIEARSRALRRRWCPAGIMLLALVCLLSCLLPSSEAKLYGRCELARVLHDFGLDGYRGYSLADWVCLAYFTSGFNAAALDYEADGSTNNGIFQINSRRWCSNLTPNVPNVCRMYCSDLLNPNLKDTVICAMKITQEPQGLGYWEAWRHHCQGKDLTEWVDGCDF	-0.073

GET /value?item= Sebin2 (Coprinopsis cinerea), A8PE78 (protein) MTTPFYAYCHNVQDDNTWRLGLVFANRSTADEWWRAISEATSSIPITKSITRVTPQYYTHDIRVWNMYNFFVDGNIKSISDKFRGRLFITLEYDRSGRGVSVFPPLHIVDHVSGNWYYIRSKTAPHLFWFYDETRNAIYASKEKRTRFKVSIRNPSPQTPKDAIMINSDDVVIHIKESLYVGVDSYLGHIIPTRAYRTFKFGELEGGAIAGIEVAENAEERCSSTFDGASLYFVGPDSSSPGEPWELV &field=glycan array binding signal (z-score) returns 1.12

Values were extracted from the supplement of paper PMC8728848.
